biological target: Long-chain fatty acid transport protein 2 (Homo sapiens, UniProt O14975); experiment: Inhibition of FATP2 in human HepG2 cells assessed as decrease in fatty acid transport after 5 mins by trypan blue dye based fluorescence quenching method
Sequence (O14975 whole entry, looked up): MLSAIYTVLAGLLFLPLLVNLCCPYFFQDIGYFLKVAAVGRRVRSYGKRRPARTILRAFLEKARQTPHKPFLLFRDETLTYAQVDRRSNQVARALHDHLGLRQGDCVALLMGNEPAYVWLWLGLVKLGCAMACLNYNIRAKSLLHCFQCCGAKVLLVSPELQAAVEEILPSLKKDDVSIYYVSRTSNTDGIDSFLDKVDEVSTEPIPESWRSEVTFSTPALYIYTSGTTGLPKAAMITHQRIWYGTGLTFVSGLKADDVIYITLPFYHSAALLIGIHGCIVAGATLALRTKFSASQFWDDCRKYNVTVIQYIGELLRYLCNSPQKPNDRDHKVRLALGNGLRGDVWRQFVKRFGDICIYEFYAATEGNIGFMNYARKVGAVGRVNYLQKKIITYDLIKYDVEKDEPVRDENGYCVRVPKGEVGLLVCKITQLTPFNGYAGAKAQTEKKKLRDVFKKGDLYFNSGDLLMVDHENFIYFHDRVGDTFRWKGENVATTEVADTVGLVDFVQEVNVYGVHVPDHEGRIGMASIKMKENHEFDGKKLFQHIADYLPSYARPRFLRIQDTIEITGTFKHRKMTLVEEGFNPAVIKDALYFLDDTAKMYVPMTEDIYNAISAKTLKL
Measurement Type: IC50 (µM)

Input line: Find the recorded IC50 belonging to O=C1Nc2ccc(Br)cc2C12NN=C(c1ccccc1)S2 (configuration not stated) and report it.
Output line: 6.7

Input line: Find the recorded IC50 belonging to O=c1cc(-c2ccc([N+](=O)[O-])cc2)[nH]c2c(-c3ccc(Cl)cc3)c(Cc3ccccc3)nn12 and report it.
Output line: 6.3
